- TARGET OR SYSTEM: human Polq polymerase domain (Homo sapiens, UniProt O75417)
- Sequence (O75417 1792-2590): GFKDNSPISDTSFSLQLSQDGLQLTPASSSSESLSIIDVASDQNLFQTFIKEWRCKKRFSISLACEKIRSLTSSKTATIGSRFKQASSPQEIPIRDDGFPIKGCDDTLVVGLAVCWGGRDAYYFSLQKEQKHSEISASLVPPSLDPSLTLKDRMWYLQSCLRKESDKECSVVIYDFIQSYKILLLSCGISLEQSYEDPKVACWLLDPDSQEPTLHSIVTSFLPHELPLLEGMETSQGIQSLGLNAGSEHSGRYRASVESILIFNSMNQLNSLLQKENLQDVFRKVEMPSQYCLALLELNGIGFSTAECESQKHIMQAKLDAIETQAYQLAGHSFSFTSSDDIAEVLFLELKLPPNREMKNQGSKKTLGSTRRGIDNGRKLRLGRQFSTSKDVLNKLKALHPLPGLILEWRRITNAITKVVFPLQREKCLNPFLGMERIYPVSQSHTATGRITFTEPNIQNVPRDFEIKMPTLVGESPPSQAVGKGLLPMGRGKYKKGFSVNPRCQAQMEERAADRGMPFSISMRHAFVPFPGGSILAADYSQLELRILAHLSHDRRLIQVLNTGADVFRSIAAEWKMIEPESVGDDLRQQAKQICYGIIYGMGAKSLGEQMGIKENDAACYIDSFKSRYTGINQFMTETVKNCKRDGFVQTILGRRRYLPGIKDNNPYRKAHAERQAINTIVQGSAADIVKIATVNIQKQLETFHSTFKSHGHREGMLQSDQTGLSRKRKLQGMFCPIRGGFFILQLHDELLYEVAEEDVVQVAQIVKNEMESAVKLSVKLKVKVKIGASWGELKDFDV
- PROTOCOL: Cy5 fluorescence assay of Polq polymerase domain inhibition
- Type: biochemical
Consider the following partition of reported IC50 into named classes: one = under 4 nM, two = from 4 nM up to 20 nM, three = 20 nM and over

Could you place [2H]C([2H])([2H])N(C(=O)Oc1c(N2CCN(CC(O)CN(C)C)C2=O)cc(C(F)(F)F)cc1C(F)(F)F)c1ccc(F)c(Cl)c1F (stereo not shown) in its proper category? Many thanks.
two

Hello team, could you let me know which band the following compound falls into: C[C@@H]1CCC(=O)N1c1cc(C(F)(F)F)cc(C(F)(F)F)c1OC(=O)N(C)c1ccc(F)cc1
three

Classify this compound: CN1CCN(c2cc(C(F)(F)F)cc(C(F)(F)F)c2OC(=O)N(C)c2ccc(F)c(Cl)c2F)C1=O
one

Which IC50 band matches CN(C(=O)Oc1c(N2CCNC2=O)cc(C(F)(F)F)cc1C(F)(F)F)c1ccc(F)cn1 ?
two

Please classify: CN(C(=O)Oc1c(N2CCNC2=O)cc(C(F)(F)F)cc1C(F)(F)F)c1ccc(F)cc1
one

State the band of CN(C(=O)Oc1c(N2CCNC2=O)cc(C(F)(F)F)cc1C(F)(F)F)c1cc(Cl)c(F)cc1F
three

State the class of the compound shown: CN(C(=O)Oc1c(N2CCN(CC3(O)CNC3)C2=O)cc(C(F)(F)F)cc1C(F)(F)F)c1ccc(F)c(Cl)c1F
two

Which IC50 band matches CN(C(=O)Oc1c(N2CCN(CCOS(N)(=O)=O)C2=O)cc(C(F)(F)F)cc1C(F)(F)F)c1ccc(F)cc1 ?
one

Where would Cc1cc(N(C)C(=O)Oc2c(N3CCNC3=O)cc(C(F)(F)F)cc2C(F)(F)F)ccc1F land among the classes by reported IC50?
three

Input [2H]C([2H])([2H])N(C(=O)Oc1c(N2CCN(CC3(O)CNC3)C2=O)cc(C(F)(F)F)cc1C(F)(F)F)c1ccc(F)c(Cl)c1F ; output its category
one

Categorize the following entry: [2H]C([2H])([2H])N(C(=O)Oc1c(N2CCN(CC3(OS(N)(=O)=O)CN(C(=O)OC(C)(C)C)C3)C2=O)cc(C(F)(F)F)cc1C(F)(F)F)c1ccc(F)c(Cl)c1F
one

Sort CN(C(=O)Oc1c(N2CCNC2=O)cc(C(F)(F)F)cc1C(F)(F)F)c1ccc(OC(F)F)cc1 into one of the categories.
three

Could you tell me which band [2H]C([2H])([2H])N(C(=O)Oc1c(N2C[C@@H](O)[C@@H](O)C2)cc(C(F)(F)F)cc1C(F)(F)F)c1ccc(F)cc1 belongs to?
two

Into which bin does this compound go? [2H]C([2H])([2H])N(C(=O)Oc1c(N2CCN(CC3(O)CNC3)C2=O)cc(C(F)(F)F)cc1C(F)(F)F)c1ccc(F)cc1
two

Sort CN(C(=O)Oc1c(N2CCN(CCO)C2=O)cc(Cl)cc1C(F)(F)F)c1ccc(F)cc1 into one of the categories.
three

Record Cc1nc(N(C)C(=O)Oc2c(N3CCNC3=O)cc(C(F)(F)F)cc2C(F)(F)F)ccc1F — which class?
one

Please indicate the class for Cc1cc(C(F)(F)F)cc(N2C[C@H](O)CC2=O)c1OC(=O)N(C)c1ccc(F)cc1 based on its IC50.
two

State the class of the compound shown: CN(C(=O)Oc1c(N2CC(C(F)(F)F)NC2=O)cc(C(F)(F)F)cc1C(F)(F)F)c1ccc(F)cc1 (stereo not shown)
three

Returns: class label. Input: Cc1cc(C(F)(F)F)cc(N2CCNC2=O)c1OC(=O)N(C)c1ccc(F)c(Cl)c1
three

Could you tell me which band CN(C(=O)Oc1c(N2CCN(CCO)C2=O)cc(C(F)(F)F)cc1C(F)(F)F)c1ccc(F)cc1 belongs to?
one

// bin(item) where item = CN(C(=O)Oc1c(N2CCNC2=O)cc(C(F)(F)F)cc1C(F)(F)F)c1ccc2ccn(C)c2n1
three

Lab log: CN(C(=O)Oc1c(N2CCCC2=O)cc(C(F)(F)F)cc1C(F)(F)F)c1ccc(F)cc1 — assign IC50 category
three

Kindly state the category for this compound: [2H]C([2H])([2H])N(C(=O)Oc1c(N2CCN(CCn3cnnc3)C2=O)cc(C(F)(F)F)cc1C(F)(F)F)c1ccc(F)cc1
two

Consider CN(C(=O)Oc1c(Cl)cc(Cl)cc1N1CCN(CCO)C1=O)c1ccc(F)cc1 . To which IC50 class does it belong?
three

For the record CN(C(=O)Oc1c(N2CCN(CCN3CCOCC3)C2=O)cc(C(F)(F)F)cc1C(F)(F)F)c1ccc(F)cc1 , report the class its IC50 corresponds to.
two

Which class holds CN(C(=O)Oc1c(N2CCN(CCOS(=O)(=O)NC(=O)COCCOCCOCCN)C2=O)cc(C(F)(F)F)cc1C(F)(F)F)c1ccc(F)cc1 ?
one

State the class of the compound shown: [2H]C([2H])([2H])N(C(=O)Oc1c(N2CCN(CC(O)CNC)C2=O)cc(C(F)(F)F)cc1C(F)(F)F)c1ccc(F)c(Cl)c1F (stereo not shown)
two

* * *

- TARGET OR SYSTEM: human Polq polymerase domain (Homo sapiens, UniProt O75417)
- PROTOCOL: Cy5 fluorescence assay of Polq polymerase domain inhibition
- Type: biochemical
Exercise: state measured IC50 for each of the compounds provided.
The figure you give is taken to be in nM; do not add the unit.

Field: IC50 (human Polq polymerase domain (Homo sapiens, UniProt O75417)). Entry: CN(C(=O)Oc1c(N2CCN(CC3CO3)C2=O)cc(C(F)(F)F)cc1C(F)(F)F)c1ccc(F)cc1 (stereo not shown) [Example 25]
5.8

Please state recorded IC50 (tested on human Polq polymerase domain (Homo sapiens, UniProt O75417)) of CN(C(=O)Oc1c(N2CCN(CCOC(F)F)C2=O)cc(C(F)(F)F)cc1C(F)(F)F)c1ccc(F)cc1 [Example 32]
2.3

Notebook: pull reported IC50 for human Polq polymerase domain (Homo sapiens, UniProt O75417), entry CNCC(O)CN1CCN(c2cc(C(F)(F)F)cc(C(F)(F)F)c2OC(=O)N(C)c2ccc(F)c(Cl)c2F)C1=O (stereo not shown) [Example 47]
4.8

Provide value of IC50 for this record tested with human Polq polymerase domain (Homo sapiens, UniProt O75417): CN(C(=O)Oc1c(N2CCN(C3CCS(=O)(=O)C3)C2=O)cc(C(F)(F)F)cc1C(F)(F)F)c1ccc(F)cc1 (stereo not shown) [Example 35]
2.5

* * *

- TARGET OR SYSTEM: human Polq polymerase domain (Homo sapiens, UniProt O75417)
- PROTOCOL: Cy5 fluorescence assay of Polq polymerase domain inhibition
- Assay type: biochemical
- CONDITION SUMMARY: 5 nM Polq polymerase domain (residues 1792-2590), 60 nM primer-template, 50 uM dNTPs, 37 °C, 18 min; read-out: IC50 (nM) Polq
- Text: The following Cy5 fluorescence assay was used to measure the ability of compounds to inhibit Polq polymerase domain in vitro. […]
Answer each item with its documented IC50.
Please respond with the number in nM and leave the unit unwritten.

Request the reported IC50 associated with CN(C(=O)Oc1c(N2CCCC2)cc(C(F)(F)F)cc1C(F)(F)F)c1ccc(F)cc1
15

// query IC50 value for entry CN1CCN(c2cc(C(F)(F)F)cc(C(F)(F)F)c2OC(=O)N(C)c2ccc(F)cc2)C1=O
6

For O=C1NCCN1c1cc(C(F)(F)F)cc(C(F)(F)F)c1OC(=O)N(c1ccc(F)cc1)C1CC1 , what is its reported IC50?
31
